pIC50: −log10 of the molar value.
Dear all, I have gathered published pIC50 values for Proto-oncogene tyrosine-protein kinase Src (Homo sapiens); the list follows.

# Smiles Data, pIC50
data = [
    ("C=CC(=O)N1CCC(N2CC(C#Cc3c(-c4ccc(Oc5ccccc5)c(Cl)n4)c4c(N)ncnc4n3C)C2)CC1", "< 5.00"),
    ("CC(C)c1cc(NC(=O)Nc2ccc(Oc3ccnc(Nc4ccc5[nH]ncc5c4)c3)c3ccccc23)n(-c2cccc(OCCN3CCOCC3)c2)n1", "> 9.00"),
    ("COc1cc(Oc2cccc(F)c2)ccc1-c1c(C#C[C@@H]2[C@H]3CN(C(=O)/C=C/CN(C)C)C[C@@H]23)n(C)c2ncnc(N)c12", "6.00 to 8.00"),
    ("CCCS(=O)(=O)Nc1ccc(F)c(C(=O)c2c[nH]c3ncc(OCCN4CCOCC4)cc23)c1F", "≥ 5.00"),
    ("COc1cc(Nc2ncnc(-n3ccc4c(OC)cccc43)n2)cc(OC)c1OC", "< 4.96"),
    ("C=CC(=O)N[C@@H](CO)C(=O)N1C[C@@H]2[C@@H](C#Cc3c(-c4ccc(Oc5ccccc5)cc4)c4c(N)ncnc4n3C)[C@@H]2C1", "≥ 8.00"),
    ("C=CS(=O)(=O)N1CC[C@@H](N2CC(C#Cc3c(-c4ccc(Oc5ccccc5)c(OC)c4)c4c(N)ncnc4n3C)C2)[C@@H](O)C1", "≥ 8.00"),
]
